test: NCI Yeast Anticancer Drug Screen. Data for the mlh1 strain (AID 171); details: S. cerevisiae mlh1 strain growth inhibition; at 100.0 µM; active compounds read high
The panel holds about 79,000 compounds, 15% with a hit somewhere; the sample as a whole holds those more often.
So basically, the class depends on measured growth inhibition, and the ranges are class A: < 10%; class B: ≥ 10% and < 90%; class C: ≥ 90%

Task: // return the class label for `CC[C@@]1(O)C(=O)OCc2c1cc1n(c2=O)Cc2cc3c(NC(=O)CN)cccc3nc2-1`
Output: class A

Task: // return the class label for `O=Cc1ccc(C(F)(F)F)cc1.[C-]#[O+].[C-]#[O+].[C-]#[O+].[Cr]`
Output: class A

Task: // return the class label for `CC[C@](O)(C(=O)O)c1cc2n(c(=O)c1CO)Cc1cc3ccccc3nc1-2`
Output: class C

---
Task: // return the class label for `CNC(=O)ON(C(C)=O)C(=O)NC`
Output: class A

Task: // return the class label for OC1(c2ccccc2)CC2CCC(C1)N2CCCC(O)(c1ccccc1)c1ccccc1 (stereo unspecified)
Output: class B

Task: // return the class label for `Oc1cccc2cccnc12`
Output: class C
